Source: the supplement of paper PMC12042874

- assay remarks: amyloid nucleation score (Sup35N fusion, yeast selection) (log enrichment); library NNK2; higher = more nucleation; inactive = no reads after selection;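 note: zero at mode of non-aggregating sequences after 7 days selection at 30°C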
Lab note: compare amyloid nucleation score against 0.2. Equal or greater, write Condition met. Smaller, write Condition not met.

residue codes | group label
RNFMVDRSGWQSKYVTHSLE | Condition not met
WMLCLDLKANKMCLMVISME | Condition not met
GSYSWSELSCMLFLFVGVSR | Condition met
NICLGMCLYHGVSDAVDQSR | Condition met
YADLISSWVILGWFQRKTLF | Condition met

Prompt line: hey, is amyloid nucleation score for this one >= 0.2? FSVLAMAWSS
Response line: Condition not met

---

- assay remarks: amyloid nucleation score (Sup35N fusion, yeast selection) (log enrichment); library NNK2; higher = more nucleation; inactive = no reads after selection
Lab note: compare amyloid nucleation score against -0.4. Equal or greater, write 1 (yes). Smaller, write 0 (no).

Consider the following illustrative entries.
substance | group label
AVVFGRGPSGYTHPMFRWPC | 0 (no)
NVVQMMSVEFMPMVHVSAIL | 1 (yes)
YYVERCNGTMVRNFLGATLV | 0 (no)
RSKLNIDV | 1 (yes)
SHRCELKWTGLVMNYKVVHC | 1 (yes)

Prompt line: hey, is amyloid nucleation score for this one >= -0.4? IREEGQFSLAVFSYMKVSPY
Response line: 1 (yes)

Prompt line: hey, is amyloid nucleation score for this one >= -0.4? LISGRMHNVCEPGAKSRTLR
Response line: 1 (yes)

Prompt line: hey, is amyloid nucleation score for this one >= -0.4? FAIRYTVMTLFCIRLGLLKV
Response line: 0 (no)

Prompt line: hey, is amyloid nucleation score for this one >= -0.4? LLRVMLHISLVMC
Response line: 0 (no)

Prompt line: hey, is amyloid nucleation score for this one >= -0.4? PCRFTYRRWTG
Response line: 0 (no)

---

Hi there, I'd appreciate the recorded amyloid nucleation score for every entry that follows.
- assay remarks: amyloid nucleation score (Sup35N fusion, yeast selection) (log enrichment); library NNK1; higher = more nucleation; inactive = no reads after selection
Give bare numbers.

Here are 6 sequences together with their reported answers.
residue codes | numeric result
RWPDQCLLMLWMVLLFPSWE | -0.552
HCGGNSRSVN | -1.11
AMYVDQVLHQPRPLMSPRMQ | 0.515
KFVTVKTRQLKSAGASIVSG | -0.119
RNTVQYVFYPQDLWWSAGVQ | 5.43
VVVVIFDFRCNKLQ | 2.28

Provide amyloid nucleation score values for the following items, in order.
1. IGYFWCCRLETANIVFNFVW
2. SILCESFVGCLDAMRDRVYY

Response line:
1. -0.724
2. -0.036

---

- assay remarks: amyloid nucleation score (Sup35N fusion, yeast selection) (log enrichment); library NNK2; higher = more nucleation; inactive = no reads after selection
measured property: amyloid nucleation score
Numbers only.

Here are 2 substances together with their reported answers.
substance | amyloid nucleation score
GMRADSYCVRVGWFLCQNIN | 7
GWASHGDNDSAMTGGSVWPG | 0.587

Provide amyloid nucleation score values for the following items, in order.
1. LLKLNGILVCLDRGVMPHDS
2. YNPNCPCICS
3. LYAECFYATILNGDECRWRT
4. YGSFWTFRFLGT
5. DISYGSSDINHCLVTYMWQC

Response line:
2.57
6.82
0.344
4.12
0.192

Provide amyloid nucleation score values for the following items, in order.
1. NIFSWEAVEKARYAHSPLNN
2. VDIWVWVG
3. PVLYFLGLSMVDNTITRSTA
4. SCNQCYFFQEVKRSVLVIKT

Response line:
[-1.44, 0.456, -0.763, 3.59]

Provide amyloid nucleation score values for the following items, in order.
1. YYCFHLKEYCRWRSANPHFK
2. LHRYRNAQVSWE
3. VGFISDNYYWYNPKVNGIWV
4. NAHKTNLVQTLVNRLIELMD
5. FEACVTGMLSDRF
6. GLMMPYL
7. ERFPDCCLFNLDVFVSVLNI

Response line:
-0.073
-0.512
-0.834
0.223
-0.871
0.062
5.02
